# CC50 listing for each entry below
Test: Cytotoxicity against human HGF cells after 24 by MTT assay
Type: cell-based
Conditions: read-out: LD50 (the source's name)
recorded metric: CC50 (µg/mL)

molecule	observed
C[C@@H]1CC[C@@]2(OC1)O[C@H]1C[C@H]3[C@@H]4CC=C5C[C@@H](O[C@@H]6O[C@H](CO)[C@@H](O[C@@H]7O[C@@H](C)[C@H](O[C@@H]8O[C@@H](C)[C@H](O)[C@@H](O)[C@H]8O)[C@@H](O)[C@H]7O)[C@H](O)[C@H]6O[C@@H]6O[C@@H](C)[C@H](O)[C@@H](O)[C@H]6O)CC[C@]5(C)[C@H]4CC[C@]3(C)[C@H]1[C@@H]2C [PENNOGENIN RAHAMNOSYL CHACOTRIOSIDE]	2.8
C[C@@H]1CC[C@@]2(OC1)O[C@H]1C[C@H]3[C@@H]4CC=C5C[C@@H](O[C@@H]6O[C@H](CO)[C@H](O[C@@H]7O[C@H](CO)[C@@H](O)[C@H](O[C@@H]8OC[C@@H](O)[C@H](O)[C@H]8O)[C@H]7O[C@@H]7O[C@H](CO)[C@@H](O)[C@H](O[C@@H]8O[C@H](CO)[C@@H](O)[C@H](O)[C@H]8O)[C@H]7O)[C@H](O)[C@H]6O)[C@H](O)C[C@]5(C)[C@H]4CC[C@]3(C)[C@@]1(O)[C@@H]2C	34
C[C@@H]1CC[C@@]2(OC1)O[C@H]1C[C@H]3[C@@H]4CC=C5C[C@@H](O[C@@H]6O[C@H](CO)[C@H](O[C@@H]7O[C@H](CO)[C@@H](O)[C@H](O[C@@H]8OC[C@@H](O)[C@H](O)[C@H]8O)[C@H]7O[C@@H]7O[C@H](CO)[C@@H](O)[C@H](O)[C@H]7O)[C@H](O)[C@H]6O)[C@H](O)C[C@]5(C)[C@H]4CC[C@]3(C)[C@@]1(O)[C@@H]2C	58
C[C@@H]1CC[C@@]2(OC1)O[C@H]1[C@@H](O)[C@H]3[C@@H]4CC=C5C[C@@H](O[C@@H]6O[C@H](CO)[C@H](O[C@@H]7O[C@H](CO)[C@@H](O)[C@H](O[C@@H]8OC[C@@H](O)[C@H](O)[C@H]8O)[C@H]7O[C@@H]7O[C@H](CO)[C@@H](O)[C@H](O[C@@H]8O[C@H](CO)[C@@H](O)[C@H](O)[C@H]8O)[C@H]7O)[C@H](O)[C@H]6O)[C@H](O)C[C@]5(C)[C@H]4CC[C@]3(C)[C@H]1[C@@H]2C	22
C[C@@H]1CC[C@@]2(OC1)O[C@H]1C[C@H]3[C@@H]4CC=C5C[C@@H](O[C@@H]6O[C@H](CO)[C@H](O[C@@H]7O[C@H](CO)[C@@H](O)[C@H](O[C@@H]8OC[C@@H](O)[C@H](O)[C@H]8O)[C@H]7O[C@@H]7O[C@H](CO)[C@@H](O)[C@H](O[C@@H]8O[C@H](CO)[C@@H](O)[C@H](O)[C@H]8O)[C@H]7O)[C@H](O)[C@H]6O)[C@H](O)C[C@]5(C)[C@H]4CC[C@]3(C)[C@H]1[C@@H]2C	31
